Every entry's value here was drawn from paper PMC3822768.

# System: cancer cell lines
# Protocol Details: MTT growth inhibition assay, summary over the cancer cell line panel
# Format: cell-based, Human
# Settings: MTT, 48 h
Value Kind: cytotoxicity against the cancer cell lines

{"Compound": "O=c1cc(-c2cccc(F)c2)c2cc3c(cc2[nH]1)OCO3 [Compound 12m]", "Experimental System": "cancer cell lines", "Reading": "weak cytotoxicity"}
{"Compound": "O=c1cc(-c2ccc(F)cc2)c2cc3c(cc2[nH]1)OCO3 [Compound 12n]", "Experimental System": "cancer cell lines", "Reading": "weak cytotoxicity"}
{"Compound": "O=c1cc(-c2ccccc2F)c2cc3c(cc2[nH]1)OCO3 [Compound 12l]", "Experimental System": "cancer cell lines", "Reading": "weak cytotoxicity"}
